Test: Primary qHTS for delayed death inhibitors of the malarial parasite plastid, 48 hour incubation
Conditions: P. falciparum luciferase growth in erythrocytes; series mostly up to 28.7 µM
Among all 310,000 compounds or so, about 18,000 (5.8%) were called active. Another 22% or so got no clear call; they are omitted. Calls come from the whole dose curve; as a rule, active = well fitted inhibition curve with a large enough effect; inconclusive = small, poorly fitted or top-dose-only effect, or another doubt; inactive = no such curve, though single readings can be large or run the other way. What follows is part of a selection rich in actives, with near analogues and random picks from the rest.
Allowed answers: yes (1) for active, no (0) for inactive

Exam item: # outcome recorded in this test, key = O=C1NCC(=O)N(Cc2ccccc2)/C1=C/c1ccccc1
Marked response: no (0)

Exam item: # outcome recorded in this test, key = CCN(CC)CCC(c1cc(OC)c(OC)c(OC)c1)c1c(OC)cc(OC)c2c(-c3ccccc3)cc(=O)oc12 (centres undefined)
Marked response: yes (1)

Exam item: # outcome recorded in this test, key = O=c1c2ccccc2oc2nc(C3CCCCC3)n(Cc3ccco3)c(=O)c12
Marked response: yes (1)

Exam item: # outcome recorded in this test, key = Cn1nc(C(F)(F)F)c2cc(C(=O)N3CCOCC3)sc21
Marked response: no (0)

Exam item: # outcome recorded in this test, key = CCn1c(=O)c(C(=O)NCc2ccc3c(c2)OCO3)c(O)c2ccccc21
Marked response: no (0)

Exam item: # outcome recorded in this test, key = CC(C)CC(=O)Nc1nnc(S(=O)(=O)N(C)c2ccc(Cl)cc2)s1
Marked response: no (0)

Exam item: # outcome recorded in this test, key = O=C(Cn1c(=O)n(Cc2ccco2)c(=O)c2ccccc21)NCC1CCCO1 (centres undefined)
Marked response: no (0)

Exam item: # outcome recorded in this test, key = CCN(CC)CCC(c1ccc2c(c1)OCO2)c1c(OC)cc(OC)c2c(-c3ccccc3)cc(=O)oc12 (centres undefined)
Marked response: yes (1)

Exam item: # outcome recorded in this test, key = Cc1ccn2c(=O)c(C(=O)NCCC3=CCCCC3)c(O)nc2c1
Marked response: no (0)

Exam item: # outcome recorded in this test, key = COc1cc(OC)c(C(=O)NCc2ccc3c(c2)OCO3)cc1OC
Marked response: no (0)

Exam item: # outcome recorded in this test, key = Cc1nnc(SCc2ccc(C(=O)c3ccc(Cl)cc3)o2)n1-c1ccccc1
Marked response: yes (1)

Exam item: # outcome recorded in this test, key = Cc1cc2c(cc1C)N(Cc1ccccc1)C1=NCCCN12
Marked response: yes (1)

Exam item: # outcome recorded in this test, key = O=C(NCCS(=O)(=O)N1CCN(c2ccc(F)cc2)CC1)c1ccc2c(c1)OCO2
Marked response: no (0)

Exam item: # outcome recorded in this test, key = COc1ccc2c(c1)OC(O)(C(F)(F)C(F)F)CC2=O (centres undefined)
Marked response: yes (1)

Exam item: # outcome recorded in this test, key = COc1cc(/C=C/C(=O)N2c3ccccc3Sc3ccc(C(F)(F)F)cc32)cc(OC)c1OC
Marked response: no (0)

Exam item: # outcome recorded in this test, key = CCOC(=O)CNC(=O)N1c2ccccc2Sc2ccccc21
Marked response: no (0)

Exam item: # outcome recorded in this test, key = Nc1nc(SCC(=O)Nc2ccc(Cl)cc2C(F)(F)F)n[nH]1
Marked response: no (0)

Exam item: # outcome recorded in this test, key = COc1ccc(NC(=O)CN2C(=O)COc3ccc(S(=O)(=O)N4CCOCC4)cc32)c(OC)c1
Marked response: no (0)

Exam item: # outcome recorded in this test, key = CCC(c1nnnn1C1CCCC1)N1CCN(C(=O)c2ccco2)CC1 (centres undefined)
Marked response: yes (1)

Exam item: # outcome recorded in this test, key = COc1ccc(CCNCc2c(-c3ccccc3)n(C)c3ccccc23)cc1
Marked response: yes (1)

Exam item: # outcome recorded in this test, key = C=CCc1cccc(/C=N/NC(=O)COc2ccc(-n3cnnn3)cc2)c1O
Marked response: no (0)

Exam item: # outcome recorded in this test, key = COc1ccc(-c2cc(=O)oc3cc(OCC(=O)N[C@@H](Cc4c[nH]c5ccccc45)C(=O)O)ccc23)cc1
Marked response: no (0)

Exam item: # outcome recorded in this test, key = CC(=O)Nc1ccc(NC(=O)[C@@H](NC(=O)c2cccc(C)c2)C(C)C)cc1
Marked response: no (0)

Exam item: # outcome recorded in this test, key = CNS(=O)(=O)c1ccc(C(=O)NCC(=O)NCCc2ccc3c(c2)OCCO3)cc1
Marked response: no (0)
